// pIC50 lookup, one value per entry
System: human platelet suspension
Experiment: U46619-induced platelet aggregation in human platelet suspension
Format: cell-based
Settings: Homo sapiens, Platelet, U46619-induced aggregation, platelet suspension; read-out: P.S(U46619) IC50
Experimental: Human platelet suspension (PS) was prepared according to the method described previously. […] Platelet aggregation was measured turbidimetrically with a Lumi-aggregometer (Payton Scientific) at 37° C. under stirring condition (900 rpm). […] The extent of platelet aggregation was determined by recording the increase of light transmission relative to that of control (maximal aggregation, as 100%) for 6 min after the addition of inducer. […]
pIC50: −log10 of the molar value.

Before answering, review these 2 worked examples.
[[record]]
sample_smiles = "Cc1ccc(-c2nc3cc(Cl)c(Cl)cc3n2Cc2ccccc2[N+](=O)[O-])o1"
tested_target = "human platelet suspension"
measured_quantity = "pIC50"
assay_value = "< 4.30"

[[record]]
sample_smiles = "Cc1ccc(-c2nc3ccc(C(=O)c4ccccc4)cc3n2Cc2cccc(F)c2)o1"
tested_target = "human platelet suspension"
measured_quantity = "pIC50"
assay_value = "< 4.30"


Okay, now this compound:
Ask: Any idea what its pIC50 is? The compound is "Cc1ccc(-c2nc3ccc(C(=O)c4ccccc4)cc3[nH]2)o1"
Result: < 4.30

FYI, the data here is from patent US20170152245A1.
